# assayedSystem: Cannabinoid receptor 2 (Homo sapiens)
# assayOverview: Binding affinity to Cannabinoid receptor 2 using African green monkey (COS-7) cells Chinese hamster ovary(CHO) cells transfected with the cDNA of human CB2
# Type: cell-based
So I've got a bunch of compounds here, and I need their Ki values.
One number for each entry, in nM.

{"columns": ["compound", "quantity", "resultValue"],
 "data": [
  ["CCCCCCC(C)(C)c1cc(O)c2c(c1)OC(C)(C)c1ccc(C)cc1-2", "Ki", 1.5],
  ["CCCCCCC(C)(C)c1cc(O)c2c(c1)OC(C)(C)[C@@H]1CCC(C)=CC21 (some centres undefined)", "Ki", 0.199],
  ["CCCCCc1cc(O)c2c(c1)OC(C)(C)c1ccc(CO)cc1-2", "Ki", 26.6],
  ["CCCCCCC(C)(C)c1cc(O)c2c(c1)OC(C)(C)[C@@H]1CC=C(C(=O)O)CC21 (some centres undefined)", "Ki", 170],
  ["CCCCCCC(C)(C)c1cc(O)c2c(c1)OC(C)(C)c1ccc(C(=O)O)cc1-2", "Ki", 4.8],
  ["CCCCCCC(C)(C)c1cc(OC(C)=O)c2c(c1)OC(C)(C)c1ccc(C(=O)O)cc1-2", "Ki", 17.3]
]}

For each of the items listed, what is its Ki?
1. CCCCCc1cc(O)c2c(c1)OC(C)(C)[C@@H]1CC=C(CO)CC21 (some centres undefined)
2. CCCCCCC(C)(C)c1cc(O)c2c(c1)oc(=O)c1ccc(C)cc12

7.4
17.3

Identify the measured Ki of "CCCCCCC(C)(C)c1cc(O)c2c(c1)OC(C)(C)c1ccc(CO)cc1-2" for Cannabinoid receptor 2 (Homo sapiens).
0.2

----------
# assayedSystem: Cannabinoid receptor 1 (Rattus norvegicus)
# Sequence (P20272 whole entry): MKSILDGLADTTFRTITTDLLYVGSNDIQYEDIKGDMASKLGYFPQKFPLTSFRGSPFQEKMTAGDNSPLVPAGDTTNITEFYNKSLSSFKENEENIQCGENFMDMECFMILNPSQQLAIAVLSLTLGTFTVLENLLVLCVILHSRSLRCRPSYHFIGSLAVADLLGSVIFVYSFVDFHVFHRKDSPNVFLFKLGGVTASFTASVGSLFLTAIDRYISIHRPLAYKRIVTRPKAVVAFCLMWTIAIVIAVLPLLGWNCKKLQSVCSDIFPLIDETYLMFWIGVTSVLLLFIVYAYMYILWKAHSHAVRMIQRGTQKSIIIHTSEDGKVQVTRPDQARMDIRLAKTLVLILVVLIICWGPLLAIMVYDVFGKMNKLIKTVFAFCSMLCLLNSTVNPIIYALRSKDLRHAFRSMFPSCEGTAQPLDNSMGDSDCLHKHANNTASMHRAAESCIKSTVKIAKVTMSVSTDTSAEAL
# assayOverview: Binding affinity for Cannabinoid receptor 1 using African green monkey (COS-7) cells transfected with the cDNA of […].
Under this convention, Condition met denotes Ki strictly below 200 nM and Condition not met denotes Ki at or above 200 nM.

Check out these entries, answers already filled in.
{"columns": ["molecule", "qualitativeLabel"],
 "data": [
  ["CCCCCCC(C)(C)c1cc(O)c2c(c1)OC(C)(C)c1ccc(CO)cc1-2", "Condition met"],
  ["CCCCCc1cc(O)c2c(c1)OC(C)(C)c1ccc(CO)cc1-2", "Condition met"],
  ["CCCCCCC(C)(C)c1cc(O)c2c(c1)OC(C)(C)[C@@H]1CCC(C)=CC21 (stereo not given in full)", "Condition met"]
]}

Threshold test, Ki < 200 nM: "CCCCCc1cc(OC(C)=O)c2c(c1)OC(C)(C)c1ccc(C(=O)O)cc1-2"
Condition not met

----------
# assayedSystem: Cannabinoid receptor 2 (Homo sapiens, UniProt P34972)
# Sequence (P34972 whole entry): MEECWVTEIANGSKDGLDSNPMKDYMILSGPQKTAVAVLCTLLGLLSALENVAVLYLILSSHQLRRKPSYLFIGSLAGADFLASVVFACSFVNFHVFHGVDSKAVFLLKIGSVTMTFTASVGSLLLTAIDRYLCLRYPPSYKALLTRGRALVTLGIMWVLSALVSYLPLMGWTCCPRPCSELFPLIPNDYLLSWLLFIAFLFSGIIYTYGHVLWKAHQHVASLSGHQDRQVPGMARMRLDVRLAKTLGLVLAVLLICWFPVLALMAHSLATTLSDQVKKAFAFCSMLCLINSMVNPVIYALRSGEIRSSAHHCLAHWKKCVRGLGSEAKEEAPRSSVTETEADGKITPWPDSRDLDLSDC
# assayOverview: Binding affinity of compound towards Cannabinoid receptor 2 in african green monkey COS-7 cells transfected with cDNA of human CB2 receptor
# Type: cell-based
quantity: pKi
One number for each entry, as −log10 of the molar value.

Identify the measured pKi of "CCCCCc1cc(O)c2c(c1)OC(C)(C)c1ccc(C)cc1-2" for Cannabinoid receptor 2 (Homo sapiens, UniProt P34972).
6.90

----------
# assayedSystem: Cannabinoid receptor 1 (Rattus norvegicus)
# assayOverview: Binding affinity of compound towards Cannabinoid receptor 1 in rat brain synaptosomal membrane preparations
# Assay type: cell membranes
quantity: pKi
One number for each entry, as −log10 of the molar value.

// returns reported pKi for input "CCCCCc1cc(O)c2c(c1)OC(C)(C)c1ccc(C)cc1-2"
6.41

----------
# assayedSystem: Cannabinoid receptor 1 (Rattus norvegicus)
# assayOverview: Effective concentration for inhibition of Cannabinoid receptor 1-mediated adenylyl cyclase activity using African green monkey (COS-7) cells transfected with the cDNA of rat CB1 receptor
Under this convention, satisfied denotes EC50 strictly below 2 nM and not satisfied denotes EC50 at or above 2 nM.

Check out these entries, answers already filled in.
{"columns": ["compound", "qualitativeLabel"],
 "data": [
  ["CCCCCc1cc(O)c2c(c1)OC(C)(C)[C@@H]1CC=C(CO)CC21 (stereo partly specified)", "not satisfied"],
  ["CCCCCc1cc(O)c2c(c1)OC(C)(C)c1ccc(CO)cc1-2", "not satisfied"],
  ["CCCCCCC(C)(C)c1cc(O)c2c(c1)OC(C)(C)[C@@H]1CC=C(C(=O)O)CC21 (stereo partly specified)", "not satisfied"],
  ["CCCCCCC(C)(C)c1cc(OC(C)=O)c2c(c1)OC(C)(C)c1ccc(C(=O)O)cc1-2", "not satisfied"],
  ["CCCCCCC(C)(C)c1cc(O)c2c(c1)OC(C)(C)c1ccc(CO)cc1-2", "satisfied"]
]}

Threshold test, EC50 < 2 nM: "CCCCCCC(C)(C)c1cc(O)c2c(c1)oc(=O)c1ccc(C)cc12"
not satisfied

Threshold test, EC50 < 2 nM: CCCCCCC(C)(C)c1cc(O)c2c(c1)OC(C)(C)[C@@H]1CC=C(CO)CC21 (stereo partly specified)
satisfied

Threshold test, EC50 < 2 nM: "CCCCCCC(C)(C)c1cc(O)c2c(c1)OC(C)(C)c1ccc(C)cc1-2"
satisfied

Threshold test, EC50 < 2 nM: CCCCCCC(C)(C)c1cc(O)c2c(c1)OC(C)(C)[C@@H]1CCC(C)=CC21 (stereo partly specified)
satisfied

Threshold test, EC50 < 2 nM: "CCCCCCC(C)(C)c1cc(O)c2c(c1)OC(C)(C)c1ccc(C(=O)O)cc1-2"
not satisfied

Threshold test, EC50 < 2 nM: "CCCCCc1cc(O)c2c(c1)OC(C)(C)c1ccc(C)cc1-2"
not satisfied

----------
# assayedSystem: UniProt P20272
# assayOverview: Binding to Cannabinoid receptor 1 using African green monkey (COS-7) cells transfected with the cDNA of rat CB1.
# Format: cell-based
So I've got a bunch of compounds here, and I need their Ki values.
Answers are plain numbers, in nM.

{"columns": ["compound", "quantity", "resultValue"],
 "data": [
  ["CCCCCCC(C)(C)c1cc(O)c2c(c1)OC(C)(C)c1ccc(C(=O)O)cc1-2", "Ki", 6.1],
  ["CCCCCCC(C)(C)c1cc(O)c2c(c1)OC(C)(C)c1ccc(C)cc1-2", "Ki", 2],
  ["CCCCCCC(C)(C)c1cc(O)c2c(c1)OC(C)(C)c1ccc(CO)cc1-2", "Ki", 0.1],
  ["CCCCCc1cc(O)c2c(c1)OC(C)(C)[C@@H]1CC=C(CO)CC21 (stereo not given in full)", "Ki", 25.8],
  ["CCCCCc1cc(O)c2c(c1)OC(C)(C)c1ccc(CO)cc1-2", "Ki", 38]
]}

For each of the items listed, what is its Ki?
1. CCCCCCC(C)(C)c1cc(O)c2c(c1)oc(=O)c1ccc(C)cc12
2. CCCCCCC(C)(C)c1cc(OC(C)=O)c2c(c1)OC(C)(C)c1ccc(C(=O)O)cc1-2
3. CCCCCCC(C)(C)c1cc(O)c2c(c1)OC(C)(C)[C@@H]1CC=C(C(=O)O)CC21 (stereo not given in full)
4. CCCCCCC(C)(C)c1cc(O)c2c(c1)OC(C)(C)[C@@H]1CCC(C)=CC21 (stereo not given in full)
5. CCCCCCC(C)(C)c1cc(O)c2c(c1)OC(C)(C)[C@@H]1CC=C(CO)CC21 (stereo not given in full)

1: 32.7; 2: 49.8; 3: 32.3; 4: 0.241; 5: 0.1

----------
# assayedSystem: UniProt P20272
# assayOverview: Binding affinity for Cannabinoid receptor 1 using African green monkey (COS-7) cells transfected with the cDNA of […].
quantity: Ki (nM)
One number for each entry, in nM.

Some solved cases for reference:
{"columns": ["cpdSmiles", "Ki / nM"],
 "data": [
  ["CCCCCCC(C)(C)c1cc(O)c2c(c1)OC(C)(C)c1ccc(C)cc1-2", 3.3],
  ["CCCCCCC(C)(C)c1cc(O)c2c(c1)oc(=O)c1ccc(C)cc12", 72.5],
  ["CCCCCCC(C)(C)c1cc(OC(C)=O)c2c(c1)OC(C)(C)c1ccc(C(=O)O)cc1-2", 556]
]}

Continue with the molecule presented below.
// returns reported Ki for input "CCCCCc1cc(O)c2c(c1)OC(C)(C)c1ccc(C(=O)O)cc1-2"
602
